test system: BFTC-909 (Kidney Carcinoma); experiment: combination Emax (second highest fraction inhibited in the dose matrix, 72 h); higher = more inhibition; extreme values may be limits of the assay
combination Emax: recorded values

Previously resolved entries follow.
COc1cccc(OCCCN)c1-c1cc(Nc2cnc(C#N)cn2)n[nH]1 [Prexasertib] + Cc1cc2ncnn2cc1Nc1ncc2c(n1)n(C1CCOCC1)c(=O)n2C [AZD7648] (first compound max 1 µM, 7x7, partner max 10 µM); 0.945
CN(CCO)CC[C@H](CSc1ccccc1)Nc1ccc(S(=O)(=O)NC(=O)c2ccc(N3CCC([C@@H](O)c4ccccc4-c4ccc(Cl)cc4)CC3)cc2)cc1S(=O)(=O)C(F)(F)F [AZD4320] + Cc1cc2ncnn2cc1Nc1ncc2c(n1)n(C1CCOCC1)c(=O)n2C [AZD7648] (first compound max 1 µM, 7x7, partner max 10 µM); 0.246
C[C@@H](c1ccc2nccn2c1)n1nnc2ncc(-c3cnn(C)c3)nc21 [Savolitinib] + Cc1c2c(nn1C)CSCc1cc(n(C)n1)CSc1cc(c3ccccc3c1)OCCCc1c(C(=O)O)n(C)c3c-2c(Cl)ccc13 [AZD5991] (first compound max 1 µM, 7x7, partner max 1 µM); 0.179
CC(=O)c1c(C)c2cnc(Nc3ccc(N4CCNCC4)cn3)nc2n(C2CCCC2)c1=O [Palbociclib] + CC1(C)CCC(CN2CCN(c3ccc(C(=O)NS(=O)(=O)c4ccc(NCC5CCOCC5)c([N+](=O)[O-])c4)c(Oc4cnc5[nH]ccc5c4)c3)CC2)=C(c2ccc(Cl)cc2)C1 [Venetoclax] (first compound max 10 µM, 7x7, partner max 1 µM); 0.326
Cc1cc2ncnn2cc1Nc1ncc2c(n1)n(C1CCOCC1)c(=O)n2C [AZD7648] + C[C@@H]1COCCN1C2=NC(=NC(=C2)C3(CC3)[S@](=N)(=O)C)C4=C5C=CNC5=NC=C4 [AZD6738] (first compound max 10 µM, 7x7, partner max 10 µM); 0.835

Task: What value of combination Emax on BFTC-909 (Kidney Carcinoma) does COc1cccc(OCCCN)c1-c1cc(Nc2cnc(C#N)cn2)n[nH]1 [Prexasertib] + CCc1c2c(nc3ccc(O)cc13)-c1cc3c(c(=O)n1C2)COC(=O)[C@]3(O)CC [SN-38] (first compound max 1 µM, 7x7, partner max 0.3 µM) have?
Output: 0.996

Task: Moving on to the next molecule: C=CCn1c(=O)c2cnc(Nc3ccc(N4CCN(C)CC4)cc3)nc2n1-c1cccc(C(C)(C)O)n1 [AZD1775] + C1CN(CCC1(C(=O)N[C@@H](CCO)C2=CC=C(C=C2)Cl)N)C3=NC=NC4=C3C=CN4 [Capivasertib] (first compound max 3 µM, partner max 3 µM)
Output: 0.922

###

system: HuCCT1 (Biliary Tract Carcinoma); assay: combination Emax (second highest fraction inhibited in the dose matrix, 72 h); higher = more inhibition; extreme values may be limits of the assay
MEASURED PARAMETER: combination Emax

Previously resolved entries follow.
N#Cc1cnc(Nc2cc(NC[C@H]3CNCCO3)c(C(F)(F)F)cn2)cn1 [SRA737] + O=c1[nH]cc(F)c(=O)[nH]1 [5-Fluorouracil] (first compound max 10 µM, 7x7, partner max 20 µM); 0.839
CN(C)CCCOc1ccc(-c2ccc3ncc4c(c3c2)n(C2CCOCC2)c(=O)n4C)cn1 [AZD0156] + C[C@@H]1COCCN1C2=NC(=NC(=C2)C3(CC3)[S@](=N)(=O)C)C4=C5C=CNC5=NC=C4 [AZD6738] (first compound max 1 µM, 7x7, partner max 10 µM); 0.796
CC(=O)c1c(C)c2cnc(Nc3ccc(N4CCNCC4)cn3)nc2n(C2CCCC2)c1=O [Palbociclib] + Cc1c2c(nn1C)CSCc1cc(n(C)n1)CSc1cc(c3ccccc3c1)OCCCc1c(C(=O)O)n(C)c3c-2c(Cl)ccc13 [AZD5991] (first compound max 10 µM, 7x7, partner max 1 µM); 0.32
C[C@@H](Nc1cc(F)cc(F)c1)c1cc(C(=O)N(C)C)cc2c(=O)cc(N3CCOCC3)oc12 [AZD8186] + CC(=O)c1c(C)c2cnc(Nc3ccc(N4CCNCC4)cn3)nc2n(C2CCCC2)c1=O [Palbociclib] (first compound max 10 µM, 7x7, partner max 10 µM); 0.479
COc1nnc2ccc(N3CCC(c4ccc(OCCN5CCN(C)C(=O)[C@H]5C)cc4)CC3)nn12 [AZD5153] + Cn1cnc2c(F)c(Nc3ccc(Br)cc3Cl)c(C(=O)NOCCO)cc21 [Selumetinib] (first compound max 1 µM, 7x7, partner max 10 µM); 0.826

Task: Tell me the measured combination Emax of CC1(C)CCC(CN2CCN(c3ccc(C(=O)NS(=O)(=O)c4ccc(NCC5CCOCC5)c([N+](=O)[O-])c4)c(Oc4cnc5[nH]ccc5c4)c3)CC2)=C(c2ccc(Cl)cc2)C1 [Venetoclax] + CCN(CCO)CCCOc1ccc2c(Nc3cc(CC(=O)Nc4cccc(F)c4)[nH]n3)ncnc2c1 [AZD2811] (first compound max 1 µM, 7x7, partner max 1 µM) , please.
Output: 0.217

Task: Moving on to the next compound: C[C@@H](c1ccc2nccn2c1)n1nnc2ncc(-c3cnn(C)c3)nc21 [Savolitinib] + Cc1c2c(nn1C)CSCc1cc(n(C)n1)CSc1cc(c3ccccc3c1)OCCCc1c(C(=O)O)n(C)c3c-2c(Cl)ccc13 [AZD5991] (first compound max 1 µM, 7x7, partner max 1 µM)
Output: 0.117
